tested on: 287954-098-R-J1 tumor spheroid viability; assay: Anticancer human tumor 287954-098-R-J1 patient-derived Ewing sarcoma cell line growth inhibition; conditions: second compound 100 µM; first compound 10 µM; active compounds read low; spheroids with HUVEC and MSC;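 further: luminescent signal taken as surrogate of viable cell content; spheroids exposed to compound for 7 days before viability readout; 100% = DMSO vehicle control viability and lower means growth inhibition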
Below, each entry is listed with its recorded viability, T/C.
Field format: number, assumed %, no unit text.

Example cases with answers are listed next.
compound	observable	unitsText	obsValue
COc1cc(C)[nH]c(=O)c1CN1CCc2c(Cl)cc(C(OC)C3COC3)c(Cl)c2C1=O (stereo not drawn) + Cn1nnc2c(C(N)=O)ncn2c1=O	viability, T/C	%	83.5
CC(C)n1c(=O)n(C)c2cnc3cc(F)c(-c4ccc(OCCCN5CCCCC5)nc4)cc3c21 + Cn1nnc2c(C(N)=O)ncn2c1=O	viability, T/C	%	103

**Q:** For the compound Cc1cc(C)c(CNC(=O)c2cc(-c3ccc(CN4CCOCC4)cc3)cc3c2cnn3C2CCCC2)c(=O)[nH]1 + Cn1nnc2c(C(N)=O)ncn2c1=O , give its measured viability, T/C value.
**A:** 104
